Reference source for all entries: PubChem BioAssay (EPA / NIEHS)

# testDescription: Tanguay_ZF_120hpf_SWIM_legacy: (Legacy) Oregon State University Tanguay Lab 120 Hour Post-fertilization zebrafish Assay for Swim Bladder Malformation (AID 2283654);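 further: swim bladder malformation in each larva scored yes or no under brightfield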
Results filed as inconclusive are left out. Activity calls are given as the source filed them. How the source made its calls: active means hit-call score of the fitted dose curve at least 0.9, where 1 is the maximum; inconclusive means response in the unintended direction; inactive means score below 0.9.
Answer with one of the outcomes active, inactive

Examples from the recorded data:
INSERT INTO results (compound, grouplabel) VALUES
  ('Cc1cn([C@H]2C[C@H](N=[N+]=[N-])[C@@H](CO)O2)c(=O)[nH]c1=O', 'inactive'),
  ('CCN(Cc1cccnc1)C(=O)c1cccc(Cl)c1[C@]1(C)C(=O)N(Cc2ccc(OC)cc2OC)c2ccc(Cl)cc21', 'inactive');

IN: # fetch the recorded call for C[C@]12CC[C@@H]3c4ccc(O)cc4CC[C@H]3[C@@H]1CCC2=O here
OUT: inactive

IN: State the result this test recorded for CCCC(=O)OCCC(C)C .
OUT: inactive

IN: Test call, this compound: O=C1c2ccccc2C(=O)N1CCc1noc(-c2ccc(CN3CCCCCC3)s2)n1
OUT: inactive

IN: Per the records of this test, what outcome belongs to CCO[Si](CCCNC(N)=O)(OCC)OCC ?
OUT: inactive

IN: How did this test come out for Cc1ncc(CO)c(CO)c1O ?
OUT: inactive

IN: Returns: the outcome recorded for CC(C)(C)c1csc(-c2cc3cc(OCc4ccccc4CC(=O)O)ccc3o2)n1 in this assay.
OUT: inactive

IN: Tell me the recorded outcome of this test for CC/C(=C(/CC)c1ccc(O)cc1)c1ccc(O)cc1 .
OUT: inactive

====

# studySystem: human Opioid Receptor Delta 1 (Opiate D1), OPRD1 (gene 4985)
# testDescription: NVS_GPCR_hOpiate_D1: NovaScreen (NVS) G Protein-Coupled Receptor Assay for human Opioid Receptor Delta 1 (Opiate D1) (AID 2283280)
Results filed as inconclusive are left out. The source made the active and inactive calls. How the source made its calls: active means hit-call score of the fitted dose curve at least 0.9, where 1 is the maximum; inconclusive means response in the unintended direction; inactive means score below 0.9.
Form entry, call: pick from active, inactive

INSERT INTO measurements (smi, grouplabel) VALUES
  ('CCCCCCCCOC(=O)c1cc(O)c(O)c(O)c1', 'active'),
  ('CN(C)c1ccc(C(=C2C=CC(=[N+](C)C)C=C2)c2ccc(N(C)C)cc2)cc1', 'active');

Then this compound:
IN: Per the records of this test, what outcome belongs to CC[C@H](NC(=O)c1cc(F)ccc1NS(=O)(=O)c1cccc2cccnc12)c1ccccc1 ?
OUT: inactive

====

# Read-out: Plasminogen activator inhibitor-1 (PAI1), SERPINE1 (gene 5054)
# testDescription: BSK_hDFCGF_PAI1: BioMAP Diversity Plus: hDFCGF Assay for Plasminogen activator inhibitor-1 (PAI1) Biomarker Activity (AID 2283066)
# testContext: primary human foreskin fibroblasts; actives raise or lower the signal
Active and inactive are the calls of the source. How the source made its calls: active means hit-call score of the fitted dose curve at least 0.9, where 1 is the maximum; inactive means score below 0.9.
propertyName: AC50

Here is how some compounds turned out for AC50.
INSERT INTO measurements (compound, reported) VALUES
  ('CC[C@@H]1C[C@H](N(Cc2cc(C(F)(F)F)cc(C(F)(F)F)c2)C(C)=O)c2cc(C(F)(F)F)ccc2N1C(=O)OC(C)C', 'inactive'),
  ('OC12N=C(c3ccccc3)SC1Cc1cc(Cl)ccc12 (stereo unspecified)', 'inactive'),
  ('Oc1ccccc1', 'inactive'),
  ('CCCCCCCC[Si](OCC)(OCC)OCC', 'inactive');

IN: Look up AC50: Cc1ccc(C(C)C)cc1
OUT: inactive

IN: For the compound Oc1ccc2ccccc2c1 , what AC50 is on record?
OUT: inactive

IN: Entry CCCCCCCCOc1ccc(C(=O)c2ccccc2)c(O)c1 : reported AC50 = ?
OUT: inactive

IN: Which AC50 value belongs to CC1(C)NC(=O)N(c2ccc([N+](=O)[O-])c(C(F)(F)F)c2)C1=O ?
OUT: inactive

IN: I'd like to know its AC50. The compound in question is NC(=O)c1nc(-c2cccc(-c3cc(F)ccc3OCC(F)(F)C(F)(F)F)c2)n[nH]1
OUT: 32.8 µM (active)

IN: Any idea what AC50 was measured for Cc1oc2c(NC(=O)c3c(Cl)cccc3Cl)cccc2c1C(C)(C)O ?
OUT: 14.2 µM (active)

IN: Which measured AC50 value corresponds to CN(C)c1ccc(C(=C2C=CC(=[N+](C)C)C=C2)c2ccc(N(C)C)cc2)cc1 ?
OUT: 1.54 µM (active)
